All values here come from patent US8394825B2.

System: DU145 cells
assaySummary: Antiproliferative assay in DU145 cells, WST-1 cell proliferation assay, 96 hours (GI50)
Format: cell-based
conditionContext: Homo sapiens, DU-145, 96 hours post-treatment, triplicate
assayReadout: GI50

// below: answered compounds
>>> resultvalue("COc1ccc(S(=O)(=O)N2CCc3cc(O)c(OC)cc3C2)cc1")
"> 100 µM"
>>> resultvalue("COc1cccc(CN2CCc3cc(O)c(OC)cc3C2=O)c1")
"> 100 µM"
>>> resultvalue("COc1ccc(CN2CCc3cc(O)c(OC)cc3C2)cc1")
"> 100 µM"
>>> resultvalue("COc1cc2c(cc1O)CCN(Cc1ccccc1O)C2")
"> 100 µM"
>>> resultvalue("COc1ccc(C(=O)N2CCc3cc(O)c(OC)cc3C2)cc1")
"> 100 µM"

The compound COc1cc2c(cc1O)CCN(C(=O)c1cccc(C#N)c1)C2=O showed GI50 equal to 50 to 100 µM

The compound COc1ccc(S(=O)(=O)N2CCc3cc(O)c(OC)cc3C2=O)cc1 showed GI50 equal to > 100 µM

The compound COc1cc2c(cc1O)CCN(Cc1cccc(C)c1)C2 showed GI50 equal to > 100 µM

The compound COc1cc2c(cc1O)CCN(Cc1ccc(OC)c(OC)c1OC)C2 showed GI50 equal to > 100 µM

The compound COc1cc2c(cc1O)CCN(Cc1cccc([N+](=O)[O-])c1)C2 showed GI50 equal to > 100 µM
